B1: MIA2 (parent)
chain: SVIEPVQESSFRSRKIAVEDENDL

variants of: B1; experiment: protein stability index of a GFP-peptide fusion (GPS, HEK-293T) (PSI 1-6); higher = more stable; conditions: c terminus: a fixed tail appended;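 also: lentivirally expressed fusions sorted by FACS into six bins by GFP to DsRed ratio, PSI derived from sequencing read proportions per bin multiplied by bin number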
Where protein stability index equals or exceeds 5, the correct label is criterion met; where it does not, the label is criterion not met.

Please check the record V6M and state if its protein stability index is at or above 5.
criterion met

Please check the record V2C and state if its protein stability index is at or above 5.
criterion met

Please check the record E8W and state if its protein stability index is at or above 5.
criterion not met

Please check the record I3G and state if its protein stability index is at or above 5.
criterion met

Please check the record E8K and state if its protein stability index is at or above 5.
criterion not met

The measured values listed here are drawn from the supplement of paper PMC10567573.
